Test system: Saccharomyces cerevisiae BY4741 SeMeCo community
ASSAY_NAME: z-score of subpopulation abundance vs DMSO median, subpopulation auxotrophic for HL; higher = larger share of this subpopulation than in DMSO controls
PARTICULARS: 10 µM; 24 h; SM minimal medium; subpopulation (auxotrophy): HL
Structures can show the parent of a compound that is named as a salt.
Below, each entry is listed with its recorded z-score of subpopulation abundance.
Kindly provide the number alone.

What measured z-score of subpopulation abundance goes with CC(=O)O[C@H]1C[C@@H]2CC[C@@H]3[C@H](CC[C@@]4(C)[C@H]3C[C@H]([N+]3(C)CCCCC3)[C@@H]4OC(C)=O)[C@@]2(C)C[C@@H]1[N+]1(C)CCCCC1 [Pancuronium dibromide] ? 0.38

What measured z-score of subpopulation abundance goes with CN(C)C(=O)Oc1cccc([N+](C)(C)C)c1 [Neostigmine Bromide] ? -0.44

What measured z-score of subpopulation abundance goes with CC(NC(C)(C)C)C(=O)c1cccc(Cl)c1 (stereo not drawn) [Amfebutamone (Bupropion) HCl] ? 0.03

What measured z-score of subpopulation abundance goes with NCC(O)c1ccc(O)cc1 (racemic) [(+,-)-Octopamine HCl] ? -1.17

What measured z-score of subpopulation abundance goes with Cc1cc(C(C#N)c2ccc(Cl)cc2)c(Cl)cc1NC(=O)c1cc(I)cc(I)c1O (stereo not drawn) ? 0.7

What measured z-score of subpopulation abundance goes with C[N+]12CCC(CC1)C(OC(=O)C(O)(c1ccccc1)c1ccccc1)C2 (stereo not drawn) [Clidinium Bromide] ? -0.33

What measured z-score of subpopulation abundance goes with `Cn1cc(C2=C(c3cn(C4CCN(Cc5ccccn5)CC4)c4ccccc34)C(=O)NC2=O)c2ccccc21` ? -1.11

What measured z-score of subpopulation abundance goes with N[C@@H]1C[C@H]1c1ccccc1 [Tranylcypromine (2-PCPA) HCl] ? -0.72

Numbers sourced from the supplement of paper PMC8975748.
